Assay: Metabolic stability in human hepatic microsome
Format: in vitro ADME
Details: microsomes, pH 7.4; human hepatic microsome, NADPH(+); read-out: CL NADPH(+)
Positions of bridges follow the written chain, without caps; N, C: chain ends. Non-standard residues stand in square brackets, D forms with d. Residues, ends and D or L forms follow the SMILES beside them. *: point of attachment. NMeF = CN[C@@H](Cc1ccccc1)C(=O)O; NMeI = CC[C@H](C)[C@H](NC)C(=O)O; NMeL = CN[C@@H](CC(C)C)C(=O)O; NMeA = CN[C@@H](C)C(=O)O; Piperidide = C1CCN(*)CC1; dNMeA = CN[C@H](C)C(=O)O; Sar = CNCC(=O)O
Reported microsomal CLint at 1 uM by item:
The reply should contain only the number, in µL/min/mg.

[
  {
    "compound": "CC[C@H](C)[C@H]1C(=O)N(C)[C@@H](C)C(=O)N[C@@H](Cc2ccccc2)C(=O)N[C@@H]([C@@H](C)O)C(=O)N[C@@H](Cc2ccccc2)C(=O)N(C)[C@@H](CC(C)C)C(=O)N2CCC[C@H]2C(=O)N[C@H](C(=O)N2CCCCC2)CC(=O)N[C@@H](C)C(=O)N[C@@H](CC(C)C)C(=O)N(C)CC(=O)N[C@@H](CC(C)C)C(=O)N1C [DP-7] (AL[Sar]L[NMeI][NMeA]FTF[NMeL]PD-Piperidide; lactam N-12)",
    "microsomal CLint at 1 uM / µL/min/mg": 48
  }
]

Note: attention shifts to another entry.
Q: Let me know recorded microsomal CLint at 1 uM for CC(C)C[C@H]1C(=O)N(C)[C@@H](Cc2ccccc2)C(=O)N[C@@H](Cc2ccccc2)C(=O)N(C)[C@@H](CC(C)C)C(=O)N[C@@H]([C@@H](C)O)C(=O)N(C)[C@@H](C)C(=O)N[C@H](C(=O)N2CCCCC2)CC(=O)N(C)[C@H](C)C(=O)N[C@@H](C)C(=O)N1C [DP-157] ([dNMeA]A[NMeL][NMeF]F[NMeL]T[NMeA]D-Piperidide; lactam N-9) , thanks.
Ans: 368

* * *

Assay: PAMPA (parallel artificial membrane permeability assay)
Assay type: in vitro ADME
Conditions: PAMPA, pH 6.5
Positions of bridges follow the written chain, without caps; N, C: chain ends. Non-standard residues stand in square brackets, D forms with d. Residues, ends and D or L forms follow the SMILES beside them. ξ: configuration not given here. *: point of attachment. Phe(4-CF3) = N[C@@H](Cc1ccc(C(F)(F)F)cc1)C(=O)O; NMeF = CN[C@@H](Cc1ccccc1)C(=O)O; NMeI = CC[C@H](C)[C@H](NC)C(=O)O; NMeL = CN[C@@H](CC(C)C)C(=O)O; ξNMeF = CNC(Cc1ccccc1)C(=O)O; NMeA = CN[C@@H](C)C(=O)O; Piperidide = C1CCN(*)CC1; β3hA = C[C@H](N)CC(=O)O; Sar = CNCC(=O)O; tBu = CC(C)(C)*
# label = TRUE if Papp at 18 hours, 50 µM >= 20 ×10⁻⁶ cm/s else FALSE

[
  {
    "compound": "CC[C@H](C)[C@@H]1NC(=O)[C@H](C)NC(=O)C[C@H](C)NC(=O)[C@H](CC(C)C)NC(=O)[C@H](CC(C)C)NC(=O)[C@H](C(C)C)NC(=O)[C@H](C)N(C)C(=O)[C@H](Cc2ccc(C(F)(F)F)cc2)NC(=O)CNC(=O)[C@H]([C@@H](C)O)NC(=O)[C@H](CC(C)C)N(C)C(=O)[C@@H]2CCCN2C1=O [DP-807] (cyclo(AIP[NMeL]TG[Phe(4-CF3)][NMeA]VLL[β3hA]))",
    "label": "FALSE"
  },
  {
    "compound": "CC(C)C[C@@H]1NC(=O)[C@H](Cc2ccccc2)N(C)C(=O)[C@H]([C@@H](C)O)NC(=O)[C@H](Cc2ccccc2)N(C)C(=O)[C@H](C)N(C)C(=O)[C@H](C)N(C)C(=O)C[C@@H](C(=O)N2CCCCC2)NC(=O)[C@@H]2CCCN2C1=O [DP-687] ([NMeA][NMeA][NMeF]T[NMeF]LPD-Piperidide; lactam N-8)",
    "label": "FALSE"
  },
  {
    "compound": "CC(C)C[C@H]1C(=O)N[C@@H](C(C)C)C(=O)N[C@H](C(=O)N(C)C(Cc2ccccc2)C(=O)N(C)[C@@H](Cc2ccccc2)C(=O)N[C@@H](C)C(=O)N2CCCCC2)CC(=O)N[C@H](C(C)C)C(=O)N(C)[C@@H](C)C(=O)N(C)[C@@H](Cc2ccccc2)C(=O)N(C)[C@@H](CC(C)C)C(=O)N[C@@H]([C@@H](C)O)C(=O)N(C)CC(=O)N1C (some centres unmarked) [DP-306] ([dV][NMeA][NMeF][NMeL]T[Sar][NMeL]VD[ξNMeF][NMeF]A-Piperidide; lactam N-9)",
    "label": "TRUE"
  }
]

Turning now to a further record.
Q: Check if Papp at 18 hours, 50 µM >= 20 ×10⁻⁶ cm/s (inclusive). Item: CC[C@H](C)[C@H]1C(=O)N[C@@H](C)C(=O)N(C)[C@@H](CC(C)C)C(=O)N[C@@H]([C@@H](C)O)C(=O)N[C@@H](Cc2ccccc2)C(=O)N(C)[C@@H](Cc2ccccc2)C(=O)N(C)[C@@H](CC(C)C)C(=O)N[C@@H](COC(C)(C)C)C(=O)N(C)[C@@H](CC(C)C)C(=O)N(C)[C@@H](C)C(=O)N[C@@H](C)CC(=O)N[C@H](C(C)C)C(=O)N1C [DP-760] (cyclo(A[NMeL]TF[NMeF][NMeL]S(tBu)[NMeL][NMeA][β3hA][dV][NMeI]))
Ans: TRUE
